System: Chikungunya virus
Experiment: Evaluation of antiviral activity against Chikungunya virus (EC90)
Assay type: cell-based
Settings: Chikungunya virus, read-out: EC90 (μM) CHIKV, concentration required for 90% inhibition of CHIKV
READOUT KIND: EC90

Input `COc1cc2c(cc1NC(=O)c1ccc(N(C)C)cc1)CCCCC2` . Output EC90: > 10 µM

EC90 reported for this compound `COc1cc2c(cc1NC(=O)c1cccc(C(C)(C)C)c1)CCCCC2` : 34.1 µM

// `COc1cc2c(cc1NC(=O)c1cc(C(C)(C)C)c(O)c(C(C)(C)C)c1)CCCCC2` : EC90 value = 44.8 µM

Note to self: EC90 recorded for `CC(C)(C)n1nc(C(=O)Nc2ccc3c(c2)CCCCC3)cc1C(F)(F)F` was > 10 µM

Lab book: EC90 of `COc1cc2c(cc1NC(=O)c1cc(-c3ccccc3)on1)CCCCC2` noted as 9 µM

Reported EC90 of `CC(C)(C)c1ccc(C(=O)Nc2ccc3c(c2OC(F)(F)F)CCCCC3)cc1` : 19.5 µM

In plain terms, `COc1cc2c(cc1NC(=O)c1ccc(C(C)(C)CO)cc1)CCCCC2` has a documented EC90 of 7.1 µM

Item: `COc1cc2c(cc1NC(=O)c1ccc(C(F)(F)F)cc1)CCCCC2` | EC90: 7.4 µM

Query `CC(C)(C)c1ncc(C(=O)Nc2ccc3c(c2)CCCCC3)s1` yields EC90 of 22.6 µM
